System: Human diffuse large B-cell lymphoma cell line: TMD8
Assay: Half inhibitory concentration (IC50) against tumor cells, CCK-8 cell viability
Assay type: cell-based
Details: 96 h treatment
Value Kind: pIC50
Numbers only, as −log10 of the molar value.

Illustrative cases are given below, each with its answer.
Compound: Cc1nc2cccc(CCCCCCCCNC34CC5CC(CC(C5)C3)C4)c2c(=O)n1C1CCC(=O)NC1=O (stereo not drawn)
Value Kind: pIC50
Numeric Value: 6.51

Compound: Cc1nc2cccc(NCCCCCNC34CC5CC(CC(C5)C3)C4)c2c(=O)n1C1CCC(=O)NC1=O (stereo not drawn)
Value Kind: pIC50
Numeric Value: 6.39

Compound: Cc1nc2cccc(NCCCCCNC34CC5CC(CC3C5)C4)c2c(=O)n1C1CCC(=O)NC1=O (stereo not drawn)
Value Kind: pIC50
Numeric Value: 6.32

Compound: Cc1nc2cccc(NCCCCNC34CC5CC(CC(C5)C3)C4)c2c(=O)n1C1CCC(=O)NC1=O (stereo not drawn)
Value Kind: pIC50
Numeric Value: 6.26

Compound: Cc1nc2cccc(NCCCCCCCNC34CCC(F)(CC3)CC4)c2c(=O)n1C1CCC(=O)NC1=O (stereo not drawn)
Value Kind: pIC50
Numeric Value: 6.99

Reported pIC50 for Cc1nc2cccc(N)c2c(=O)n1C1CCC(=O)NC1=O (stereo not drawn) [CC-122, Avadomide, reference compound] : what is it?
6.05

Source listed as patent US20240425475A1.
